- tgt: B1R receptor of the rat (rB1R) (Rattus norvegicus)
- Construct: expressed in transfected cells; host or cells: CHO K1 cells
- Sequence (P97583 whole entry): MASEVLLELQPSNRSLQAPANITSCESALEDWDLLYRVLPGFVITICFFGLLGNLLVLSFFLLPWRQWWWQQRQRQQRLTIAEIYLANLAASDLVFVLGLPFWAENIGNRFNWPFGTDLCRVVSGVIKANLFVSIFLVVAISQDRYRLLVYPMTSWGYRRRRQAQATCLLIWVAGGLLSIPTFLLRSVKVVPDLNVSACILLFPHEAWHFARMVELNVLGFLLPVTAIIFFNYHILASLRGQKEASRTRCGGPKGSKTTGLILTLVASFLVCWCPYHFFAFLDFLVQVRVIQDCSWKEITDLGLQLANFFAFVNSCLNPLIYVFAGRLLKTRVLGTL
- assay-name: Functional investigation on the bradykinin receptor 1 (B1R), FLIPR Ca2+ assay, rB1R cells
- Assay type: cell-based
parameter: inhibition at 10 µM (%)

Example entries begin here.
**Q:** For B1R receptor of the rat (rB1R) (Rattus norvegicus), provide inhibition at 10 µM of COc1cc(C)c(S(=O)(=O)N(C)C(C)c2nc3cccc(C(=O)N4CCC5(CCN(C(=O)CC(C)(C)C)CC5)CC4)c3[nH]2)c(C)c1 (stereo not shown) please.
**A:** 88

**Q:** Further, for CN(Cc1nc2cccc(C(=O)N3CCC4(CC3)C(=O)NCC4c3ccncc3)c2[nH]1)C(=O)c1ccccc1Cl (stereo not shown) ?
**A:** 46

(1) COc1cc(C)c(S(=O)(=O)N(C)Cc2nc3cccc(CC(=O)N4CCC5(CC4)CCN(c4ccncc4)CC5)c3[nH]2)c(C)c1
(2) COc1cc(C)c(S(=O)(=O)N(C)C(C)c2nc3cccc(C(=O)N4CCC5(CCN(Cc6[nH]cnc6C)CC5)CC4)c3[nH]2)c(C)c1 (stereo not shown)
**Q:** Hi team, can someone confirm which has the larger inhibition at 10 µM: 1 or 2 ? Thanks. Indicate your choice by writing its label.
**A:** 2
(2: 104%, 1: 55%)

====

- tgt: human B1R receptor (hB1R) (Homo sapiens, UniProt P46663)
- Construct: expressed in transfected cells; host or cells: CHO K1 cells
- Sequence (P46663 whole entry): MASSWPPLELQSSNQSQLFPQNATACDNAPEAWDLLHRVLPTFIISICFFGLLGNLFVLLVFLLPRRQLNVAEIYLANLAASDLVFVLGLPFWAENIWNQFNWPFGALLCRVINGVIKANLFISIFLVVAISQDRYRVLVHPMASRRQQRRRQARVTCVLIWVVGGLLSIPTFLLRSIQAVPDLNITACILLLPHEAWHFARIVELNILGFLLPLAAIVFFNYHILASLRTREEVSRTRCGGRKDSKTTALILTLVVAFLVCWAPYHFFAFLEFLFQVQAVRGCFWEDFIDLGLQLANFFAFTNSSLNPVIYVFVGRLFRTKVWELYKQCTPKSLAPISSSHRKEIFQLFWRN
- assay-name: Functional investigation on the bradykinin receptor 1 (B1R), FLIPR Ca2+ assay, hB1R cells
- Assay type: cell-based
parameter: inhibition at 10 µM (%)

**Q:** Look up inhibition at 10 µM for this molecule: COc1cc(C)c(S(=O)(=O)N(C)C(C)c2nc3cccc(C(=O)N4CCC5(CCN(Cc6ccccn6)CC5)CC4)c3[nH]2)c(C)c1 (stereo not drawn)
**A:** 91

(A) COc1cc(C)c(S(=O)(=O)N(C)C(C)c2nc3cccc(C(=O)N4CCC5(CCN(Cc6[nH]cnc6C)CC5)CC4)c3[nH]2)c(C)c1 (stereo not drawn)
(B) CN(Cc1nc2cccc(C(=O)N3CCC4(CC3)CCN(c3ccncc3)CC4)c2[nH]1)S(=O)(=O)c1cccc2ccccc12
(C) CN(Cc1nc2cccc(C(=O)N3CCC4(CC3)CCN(c3ccncc3)C4)c2[nH]1)C(=O)c1ccccc1Cl
**Q:** Sequence the entries by inhibition at 10 µM, beginning with the highest number. Answer by listing the labels in the order asked for.
**A:** B, A, C

====

- tgt: B1R receptor of the rat (rB1R) (Rattus norvegicus)
- Construct: expressed in transfected cells; host or cells: CHO K1 cells
- assay-name: Functional investigation on the bradykinin receptor 1 (B1R), FLIPR Ca2+ assay, rB1R cells
- Format: cell-based
parameter: inhibition at 10 µM (%)

**Q:** Could you share what inhibition at 10 µM was measured for COc1cc(C)c(S(=O)(=O)N(C)C(C)c2nc3cccc(C(=O)N4CCC5(CC4)CCN(c4ccncc4)CC5)c3[nH]2)c(C)c1 (stereo not shown) [I_06] , tested on B1R receptor of the rat (rB1R) (Rattus norvegicus)?
**A:** 90

(I) COc1cc(C)c(S(=O)(=O)N(C)C(C)c2nc3cccc(C(=O)N4CCC5(CC4)CCN(S(=O)(=O)c4ccc(F)c(C#N)c4)CC5)c3[nH]2)c(C)c1 (stereo not shown) [I_CC-58]
(II) CN(Cc1nc2cccc(C(=O)N3CCC4(CC3)CCN(c3ccncc3)C4)c2[nH]1)C(=O)c1sccc1Cl [I_CC-09]
**Q:** Would you let me know which has the greater inhibition at 10 µM value, I or II ? Mark your selection by writing its label.
**A:** I
(I: 101%, II: 58%)
